Assay: Plasma pharmacokinetics of FdCyd, metabolites and THU in cynomolgus monkeys
Conditions: both, cynomolgus monkey, plasma, po, 10 mg/kg, Cmax, analyte FdCyd; FdCyd 10 mg/kg PO 1 h after THU 150 mg/kg PO; N=4; mean (±SD)
endpoint.name: Cmax

Nc1nc(=O)n([C@H]2C[C@H](O)[C@@H](CO)O2)cc1F ... 1180 ng/mL

====

Experiment: Plasma pharmacokinetics of FdCyd, metabolites and THU in cynomolgus monkeys
Details: both, cynomolgus monkey, plasma, po, 10 mg/kg, T½, analyte FdCyd; FdCyd 10 mg/kg PO 1 h after THU 150 mg/kg PO; N=4; mean (±SD)
endpoint.name: half-life (h)

Nc1nc(=O)n([C@H]2C[C@H](O)[C@@H](CO)O2)cc1F ... 1.23
